Property: protein stability index; scope: individual variants
B1: CD207 (parent)
chain: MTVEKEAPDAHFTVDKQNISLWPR

Variants of: B1
Assay Text: protein stability index of a GFP-peptide fusion (GPS, HEK-293T) (PSI 1-6); higher = more stable;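 also: lentivirally expressed fusions sorted by FACS into six bins by GFP to DsRed ratio, PSI derived from sequencing read proportions per bin multiplied by bin number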
Experimental Conditions: c terminus: a fixed tail appended

Mutant Name	protein stability index
T2I	2.94
D9W	2.91
K16Q	3.01
T13N	3.63
T2N	3.36
D15S	3.61
T2M	3.86
A7R	2.54
T13D	3.96
A7W	2.68
S20A	3.3
T2Y	2.18
L21I	3.79
A7Y	2.93
H11Y	2.28
K5N	3.13
M1T	3.45
R24D	4.53
